What pIC50 was measured for each of the following?
- Test system: anti CD2/3/28 stimulated IL-17 release from PBMC of COPD patients
- ASSAY_REMARKS: Ex-vivo IL-17 inhibition from PBMCs of COPD patients
- Type: cell-based, human
- CONDITION_NOTES: Homo sapiens, average over patients, 72 hrs
One number for each entry, as −log10 of the molar value.

>>> observed_measurement("CCS(=O)(=O)c1ccc(CC(=O)Nc2ccc(OC3(c4ccc(Cl)cc4Cl)CCOCC3)cc2)cc1")
6.44

Exercise: Fill blank: measured pIC50 of the compound CCn1c(C(C)(C)Oc2ccc(F)cc2F)nc2cc(NC(=O)Cc3ccc(S(=O)(=O)CC)cc3)ccc21 is ____.
Solution: 6.83

----------
- SYSTEM_TESTED: human RORγ receptor (GST-tagged ROR gamma ligand binding domain) (Homo sapiens (Human), UniProt P51449)
- Sequence (P51449 269-508): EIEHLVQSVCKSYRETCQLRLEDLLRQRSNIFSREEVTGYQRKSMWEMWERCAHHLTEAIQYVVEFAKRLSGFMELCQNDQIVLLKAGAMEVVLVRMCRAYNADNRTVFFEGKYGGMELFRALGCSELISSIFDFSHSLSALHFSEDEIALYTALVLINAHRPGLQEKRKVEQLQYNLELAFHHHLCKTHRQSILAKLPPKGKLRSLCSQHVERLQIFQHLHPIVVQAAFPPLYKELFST
MEASURED_QUANTITY: pIC50
Give bare numbers, as −log10 of the molar value.

Reference set (3 entries):
>>> observed_measurement("CCS(=O)(=O)c1ccc(CC(=O)Nc2ccc(OC(C)(C)c3ncc(Cl)cc3Cl)c(F)c2)cc1")
7.59
>>> observed_measurement("CCn1c(C(C)(C)Oc2ccc(F)cc2F)nc2cc(NC(=O)Cc3ccc(S(=O)(=O)CC)cc3)ccc21")
8.37
>>> observed_measurement("CCS(=O)(=O)c1ccc(CC(=O)Nc2ccc(C#CC(C)(C)Oc3ccc(Cl)c(F)c3)cc2)cc1")
7.76

Attention now turns to another entry.
Exercise: Fill blank: measured pIC50 of the compound CCS(=O)(=O)c1ccc(CC(=O)Nc2ccc(OC(C)(C)c3ccc(Cl)cc3Cl)c(F)c2)cc1 is ____.
Solution: 8.22

----------
- SYSTEM_TESTED: human RORγ receptor (GST-tagged ROR gamma ligand binding domain) (Homo sapiens (Human), UniProt P51449)
MEASURED_QUANTITY: IC50 (nM)
Give bare numbers, in nM.

Reference set (2 entries):
>>> observed_measurement("CCS(=O)(=O)c1ccc(CC(=O)Nc2ccc(OC3(c4ccc(Cl)cc4Cl)CCOCC3)cc2)cc1")
18.4
>>> observed_measurement("CCS(=O)(=O)c1ccc(CC(=O)Nc2ccc(OC(C)(C)c3ccc(Cl)cc3Cl)cc2)cc1")
5.52

Attention now turns to another entry.
Exercise: Fill blank: measured IC50 of the compound CCS(=O)(=O)c1ccc(CC(=O)Nc2ccc(OC3(c4ccc(Cl)cc4Cl)CCOCC3)c(F)c2)cc1 is ____.
Solution: 16.2
